- System: SH-SY5Y cells
- measurement.protocol: Neuroprotection against rotenone/oligomycin A in SH-SY5Y cells (MTT)
- Format: cell-based
- settings: Homo sapiens, 24 h, 1 µM compound, rotenone 30 µM + oligomycin A 10 µM, read-out: % Neuroprotection ± SEM at 1 µM (rotenone/oligomycin A)
Entries whose % neuroprotection against rotenone/oligomycin A toxicity at 1 µM is below 60% take Y; entries at or above 60% take N.

{"mol": "COC(=O)C1=C(C)N(CCc2ccccc2)C(=O)/C1=C\\c1ccc(OCc2ccc(Cl)cc2)c(OC)c1", "target.of.assay": "SH-SY5Y cells", "class.name": "N"}
{"mol": "COC(=O)C1=C(C)N(CCc2ccccc2)C(=O)/C1=C\\c1ccc(OC)c(O)c1", "target.of.assay": "SH-SY5Y cells", "class.name": "Y"}
{"mol": "COC(=O)C1=C(C)N(CCc2ccccc2)C(=O)/C1=C\\c1ccc(O)c(O)c1", "target.of.assay": "SH-SY5Y cells", "class.name": "N"}
{"mol": "COC(=O)C1=C(C)N(Cc2ccccc2)C(=O)/C1=C\\c1ccccc1", "target.of.assay": "SH-SY5Y cells", "class.name": "Y"}
{"mol": "COC(=O)C1=C(C)N(CCc2ccc(OC)c(OC)c2)C(=O)/C1=C\\c1ccc(OCc2ccccc2Cl)c(OC)c1", "target.of.assay": "SH-SY5Y cells", "class.name": "N"}
{"mol": "COC(=O)C1=C(C)N(CCc2ccccc2)C(=O)/C1=C\\c1cc(OC)c(OC)c(OC)c1", "target.of.assay": "SH-SY5Y cells", "class.name": "N"}
{"mol": "COC(=O)C1=C(C)N(CCc2ccc(OC)c(OC)c2)C(=O)/C1=C\\c1ccc(OCc2ccc(Cl)cc2)c(OC)c1", "target.of.assay": "SH-SY5Y cells", "class.name": "Y"}
{"mol": "COC(=O)C1=C(C)N(Cc2ccccc2)C(=O)/C1=C\\c1ccc(OC)cc1", "target.of.assay": "SH-SY5Y cells", "class.name": "N"}
{"mol": "COC(=O)C1=C(C)N(CCc2ccccc2)C(=O)/C1=C\\c1c[nH]c2ccccc12", "target.of.assay": "SH-SY5Y cells", "class.name": "N"}
{"mol": "COC(=O)C1=C(C)N(Cc2ccccc2)C(=O)/C1=C\\c1ccc(Cl)cc1", "target.of.assay": "SH-SY5Y cells", "class.name": "N"}
{"mol": "COC(=O)C1=C(C)N(CCc2ccccc2)C(=O)/C1=C\\c1ccc2c(c1)OCO2", "target.of.assay": "SH-SY5Y cells", "class.name": "Y"}
{"mol": "COC(=O)C1=C(C)N(CCc2ccccc2)C(=O)/C1=C\\c1ccc(OC)cc1OC", "target.of.assay": "SH-SY5Y cells", "class.name": "Y"}
{"mol": "COC(=O)C1=C(C)N(CCc2ccccc2)C(=O)/C1=C\\c1cc(OC)c(OC)cc1OC", "target.of.assay": "SH-SY5Y cells", "class.name": "Y"}
{"mol": "COC(=O)C1=C(C)N(CCc2ccccc2)C(=O)/C1=C\\c1ccc(OCc2ccccc2F)c(OC)c1", "target.of.assay": "SH-SY5Y cells", "class.name": "Y"}
